Measured values drawn from ChEMBL document CHEMBL1157539 for this set.

Test system: Plasmodium falciparum
assay: GSK_TCMDC: Inhibition of Plasmodium falciparum 3D7 in whole red blood cells, using parasite LDH activity as an index of growth. Test compounds present at 2uM
Assay type: functional
Form field: Inhibition (one value per entry).
assay-endpoint: Inhibition

- compound: "COc1ccc2[nH]cc(C3CCN(CCCCCNC(=O)c4ccc(-c5ccccc5)cc4)CC3)c2c1"
  assay-endpoint: "Inhibition"
  obs-value: "96%"
- compound: "Cc1cc(NCCC(=O)NCCOc2ccccc2)nc(NCc2ccccc2C)n1.O=C(O)C(F)(F)F"
  assay-endpoint: "Inhibition"
  obs-value: "92%"
- compound: "CC(C)c1ccc(S(=O)(=O)Nc2cccc(CCN3CCC(N4CCCCC4)CC3)c2)cc1"
  assay-endpoint: "Inhibition"
  obs-value: "100%"
- compound: "O=C(O)C(F)(F)F.O=C1OC(c2ccccc2)(c2ccccn2)CN1C1CCN(Cc2cccn2-c2ccc(Cl)cc2)CC1 (centres undefined)"
  assay-endpoint: "Inhibition"
  obs-value: "99%"
- compound: "CCOC(=O)c1c(NC(=O)c2ccccc2)sc2c(O)c(CN(CC)CC)ccc12.Cl"
  assay-endpoint: "Inhibition"
  obs-value: "100%"
- compound: "CCCCC(CC)CN1C(=O)C(c2ccccc2)(c2ccccc2)N=C1N.O=CO (centres undefined)"
  assay-endpoint: "Inhibition"
  obs-value: "94%"
- compound: "Cc1cccc(CNc2nc(C)cc(N[C@@H](Cc3ccccc3)C(=O)NCc3cccc(F)c3)n2)c1.O=C(O)C(F)(F)F"
  assay-endpoint: "Inhibition"
  obs-value: "100%"
- compound: "Nc1nc(N)c2nc(C3CC=CCC3)c(N)nc2n1 (centres undefined)"
  assay-endpoint: "Inhibition"
  obs-value: "95%"
- compound: "COc1ccc(CCNCCCCCCNCCc2ccc(Cl)cc2)c(Cl)c1OC.Cl"
  assay-endpoint: "Inhibition"
  obs-value: "100%"

====

Form field: Inhibition (one value per entry).
Tested on: Plasmodium falciparum
assay: GSK_TCMDC: Inhibition of Plasmodium falciparum 3D7 in whole red blood cells, using parasite LDH activity as an index of growth. Test compounds present at 2uM
Format: functional

- compound: "CCCCCCNC(=O)C1Cc2c([nH]c3ccc(Br)cc23)C2(CCN(CCc3ccccc3)CC2)N1 (configuration not stated)"
  Inhibition / %: 100
- compound: "COc1cccc(NC(=O)N2CCOC(CCN3CCC4(CCc5ccccc54)CC3)(c3ccc(Cl)c(Cl)c3)C2)c1 (configuration not stated)"
  Inhibition / %: 94
- compound: "CS(=O)(=O)c1ccc(CCNCc2ccc(-c3ccc(CN(C(=O)C4CC(=O)c5ccccc54)C4Cc5ccccc5C4)cc3)nc2)cc1.O=C(O)C(F)(F)F (configuration not stated)"
  Inhibition / %: 90
- compound: "CN(C)c1nc(NCc2ccccc2)nc(N/N=C/c2cc([N+](=O)[O-])ccc2O)n1"
  Inhibition / %: 100
- compound: "Cc1ccnc(-n2c(C)cc(C=C3SC(=Nc4ccccc4)N(Cc4ccco4)C3=O)c2C)c1"
  Inhibition / %: 99
- compound: "CC(C)c1ccc2oc(-c3ccc(NC(=O)c4ccc([N+](=O)[O-])o4)cc3)nc2c1"
  Inhibition / %: 100
- compound: "COC(=O)CCCCCOc1cc(Cc2cnc(N)nc2N)cc(OC)c1OC"
  Inhibition / %: 90
- compound: "COc1ccc(Cl)cc1-c1nc(C(=O)NCCN2CCCCC2)c(C(C)C)s1.O=C(O)C(F)(F)F"
  Inhibition / %: 100
- compound: "O=C(N[C@@H](Cc1ccccc1)[C@H](O)CNC1CCOCC1)c1cc(C2CCCC2)cc(N2CCCCS2(=O)=O)c1.O=CO"
  Inhibition / %: 100
- compound: "COc1ccc2nccc([C@@H](O)CN3CCC(NCc4ccc5c(c4)NC(=O)C(C)S5)CC3)c2c1.O=C(O)C(=O)O (some centres not stated)"
  Inhibition / %: 99
- compound: "COc1cc2c(cc1OC)CC(NCCCCCCNCCc1ccc(Cl)cc1)CC2.Cl (configuration not stated)"
  Inhibition / %: 98
- compound: "CCN(CC)CCN(Cc1ccc(-c2ccc(C(F)(F)F)cc2)cc1)C(=O)Cn1c(CCc2ccc(F)c(F)c2F)nc(=O)c2ccc(F)cc21.O=C(O)C(O)C(O)C(=O)O"
  Inhibition / %: 98
- compound: "COC(=O)c1c(C#N)c(OC)cc(O)c1CSC[C@@H](CN1CCCCC1)Nc1nc(-c2ccc([N+](=O)[O-])cc2)cs1"
  Inhibition / %: 100
- compound: "CCOc1cc(Cc2cnc(N)nc2N)cc(OCC)c1OCCCCC(=O)OC"
  Inhibition / %: 95
- compound: "COCCCC1C(=O)OC2CCCC21 (configuration not stated)"
  Inhibition / %: 93
- compound: "Cc1cc(C2CCN(CCCCNC(=O)c3ccc(-c4ccc(C(F)(F)F)cc4)cc3)CC2)c(C)cc1OCCOC1CCCCO1 (configuration not stated)"
  Inhibition / %: 95
- compound: "O=C(CN(c1cccc(C(F)(F)F)c1)S(=O)(=O)c1ccc(Cl)cc1)NCCC(c1ccccc1)c1ccccc1"
  Inhibition / %: 94

====

Form field: Inhibition (one value per entry).
Tested on: HepG2
assay: GSK_TCMDC: Percent inhibition of human HepG2 cell line. Test compounds present at 10uM.
Assay type: functional
assay-endpoint: Inhibition (%)

- compound: "Cc1cc(NC(=O)c2cc(Br)ccc2Cl)n(-c2nc(C)c(C)c(=O)[nH]2)n1"
  assay-endpoint: "Inhibition"
  value-units: "%"
  obs-value: 54
- compound: "CCn1c(-c2nonc2N)nc2c(-c3cccc(NC(=O)Nc4ccc(C(F)(F)F)cc4)c3)ncc(OCCCN)c21.O=C(O)C(F)(F)F"
  assay-endpoint: "Inhibition"
  value-units: "%"
  obs-value: 36
- compound: "Br.CC(=O)CSC(C=Cc1ccc(N(C)C)cc1)=Nc1ccccc1"
  assay-endpoint: "Inhibition"
  value-units: "%"
  obs-value: 38
- compound: "CC(=O)Nc1ncc(C(=O)Nc2cccc(-c3cccc(-c4nc5cccc(C)c5[nH]4)c3)c2)s1"
  assay-endpoint: "Inhibition"
  value-units: "%"
  obs-value: 15
- compound: "O=C(NC1CCCCC1)N(Cc1ccccc1-c1ccc(CNCCc2ccccc2)cc1)C1CCN(Cc2ccccc2)CC1.O=C(O)C(F)(F)F"
  assay-endpoint: "Inhibition"
  value-units: "%"
  obs-value: 96
- compound: "Br.CCc1ccc(OCCCON2C(=N)N=C(N)NC2(C)C)cc1"
  assay-endpoint: "Inhibition"
  value-units: "%"
  obs-value: 64
- compound: "CC(C)CC(NC(=O)c1ccc(F)cc1)C(=O)N[C@H](/C=N/N1CCNC1=O)CC(C)C (some centres undefined)"
  assay-endpoint: "Inhibition"
  value-units: "%"
  obs-value: 0
- compound: "Br.CC(C)(C)c1ccc(Cn2c(=N)n(CC(=O)c3ccc(-c4ccccc4)cc3)c3ccccc32)cc1"
  assay-endpoint: "Inhibition"
  value-units: "%"
  obs-value: 63
- compound: "O=C(/C=C/c1ccc(C(F)(F)F)cc1)NCCCCCN1CCC(c2c[nH]c3ccccc23)CC1"
  assay-endpoint: "Inhibition"
  value-units: "%"
  obs-value: 96

====

Form field: Inhibition (one value per entry).
Tested on: Plasmodium falciparum
assay: GSK_TCMDC: Inhibition of Plasmodium falciparum 3D7 in whole red blood cells, using parasite LDH activity as an index of growth. Test compounds present at 2uM
Format: functional

- compound: "COc1cc(OC)cc(C(=O)Nc2cccc(-c3cn4ccc(C)cc4n3)c2)c1"
  measured-target: "Plasmodium falciparum"
  Inhibition, %: 86
- compound: "NC1CCCN(Cc2cccc(-c3ccc(-c4nc5ccccc5[nH]4)s3)c2)C1.O=C(O)C(F)(F)F (stereo not given)"
  measured-target: "Plasmodium falciparum"
  Inhibition, %: 98
- compound: "CCCCCCn1c(Sc2ccc(C#N)c([N+](=O)[O-])c2)nnc1-c1ccc(Cl)cc1"
  measured-target: "Plasmodium falciparum"
  Inhibition, %: 93
- compound: "Br.Cn1c(=N)n(CC(=O)OCc2ccc(OCc3ccccc3)cc2)c2ccccc21"
  measured-target: "Plasmodium falciparum"
  Inhibition, %: 100
- compound: "O=C(Cc1ccc(Nc2nccc(Nc3cccc4[nH]ncc34)n2)cc1)Nc1ccc(C(F)(F)F)cc1"
  measured-target: "Plasmodium falciparum"
  Inhibition, %: 100

====

Tested on: Plasmodium falciparum
assay: GSK_TCMDC: Inhibition of Plasmodium falciparum 3D7 in whole red blood cells, using parasite LDH activity as an index of growth. Test compounds present at 2uM
Format: functional

- input-smiles: "CC[C@H](C)CNC(=O)c1ccnc(-c2ccc(CN3CCC(N4CCCC4)CC3)cc2)c1.O=C(O)C(F)(F)F"
  measured-target: "Plasmodium falciparum"
  value-units: "%"
  Inhibition: 99
- input-smiles: "CCN1CCC(N(Cc2ccc(-c3ccc(C(F)(F)F)cc3)cc2)C(=O)Cn2c(CCc3cccc(F)c3F)nc(=O)c3ccccc32)CC1.O=C(O)C(O)C(O)C(=O)O"
  measured-target: "Plasmodium falciparum"
  value-units: "%"
  Inhibition: 95
- input-smiles: "Cc1nc(C)c(CC(=O)Nc2ccc(-c3ccc(-c4nc5cc(C(F)(F)F)ccc5[nH]4)s3)cc2)s1"
  measured-target: "Plasmodium falciparum"
  value-units: "%"
  Inhibition: 90
- input-smiles: "Cc1[nH]c(C)c(-c2ccc(-c3ccc(OCC(F)(F)F)cc3)nc2)c(=O)c1Cl"
  measured-target: "Plasmodium falciparum"
  value-units: "%"
  Inhibition: 94
